Hi there, I'd appreciate the recorded pIC50 for every entry that follows.
Test system: CHO subline engineered to express human PCFT (R2/PCFT4)
Assay: Growth inhibition assay, CHO subline R2/PCFT4 expressing PCFT
Type: cell-based
Settings: Table 2; R2/PCFT4 cells
pIC50 (log units): -log10 of the concentration in mol/L.

// lookup pIC50 | system=CHO subline engineered to express human PCFT (R2/PCFT4) | key= Nc1nc2[nH]cc(CCCOc3ccc(C(=O)N[C@@H](CCC(=O)O)C(=O)O)cc3)c2c(=O)[nH]1 6.41

Same again, this time with Nc1nc2[nH]cc(CCCSc3ccc(C(=O)N[C@@H](CCC(=O)O)C(=O)O)cc3)c2c(=O)[nH]1 6.26

Same again, this time with Nc1nc2[nH]cc(CCCCc3ccc(C(=O)N[C@@H](CCC(=O)O)C(=O)O)cc3)c2c(=O)[nH]1 6.08
